This collection of values is drawn from the Kinase Knowledgebase extract (Sharma et al. 2016).

target: MAPK14 (UniProt Q16539); experiment: p-38 Kinase Inhibition Assay
Sequence (Q16539 whole entry, looked up): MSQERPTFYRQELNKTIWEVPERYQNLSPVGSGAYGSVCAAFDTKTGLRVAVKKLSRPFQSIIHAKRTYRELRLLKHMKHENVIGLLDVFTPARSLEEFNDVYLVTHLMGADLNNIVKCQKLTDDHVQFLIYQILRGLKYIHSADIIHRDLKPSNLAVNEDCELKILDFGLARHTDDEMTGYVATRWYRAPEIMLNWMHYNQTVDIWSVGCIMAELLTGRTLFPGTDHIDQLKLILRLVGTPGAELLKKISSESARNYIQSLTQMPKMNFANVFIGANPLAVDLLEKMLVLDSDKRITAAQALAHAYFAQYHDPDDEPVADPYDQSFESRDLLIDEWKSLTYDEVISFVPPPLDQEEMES

>  <Smiles record>
NC(=NO)c1cccc(C(=O)c2cnn(-c3ccc(F)cc3)c2N)c1

>  <System tested>
MAPK14 (UniProt Q16539)

>  <IC50 / µM>
1.45

$$$$

====

molecular target: MAPK14 (human); assay: Inhibition of LPS-Induced TNF-a Production in THP1 Cells
pIC50: −log10 of the molar value.

>  <Smiles record>
N#CCCCOc1cccc(C(=O)c2cnn(-c3ccc(F)cc3)c2N)c1

>  <pIC50>
6.08

$$$$
>  <Smiles record>
CN1CCN(C(=O)COc2cccc(C(=O)c3cnn(-c4ccc(F)cc4)c3N)c2)CC1

>  <pIC50>
6.16

$$$$
>  <Smiles record>
Nc1c(C(=O)c2cccc(/C=C/S(N)(=O)=O)c2)cnn1-c1ccc(F)cc1

>  <pIC50>
5.79

$$$$
>  <Smiles record>
Nc1c(C(=O)c2cccc(OCCCN3CCCCC3)c2)cnn1-c1ccc(F)cc1

>  <pIC50>
6.21

$$$$
>  <Smiles record>
Nc1cccc(C(=O)c2cnn(-c3ccc(F)cc3)c2N)c1

>  <pIC50>
6.77

$$$$
>  <Smiles record>
NC(=NO)c1cccc(C(=O)c2cnn(-c3ccc(F)cc3)c2N)c1

>  <pIC50>
6.77

$$$$
>  <Smiles record>
Nc1c(C(=O)c2ccc(/C=C/CN3CCOCC3)cc2)cnn1-c1ccc(F)cc1

>  <pIC50>
5.20

$$$$
>  <Smiles record>
Nc1c(C(=O)c2cccc(CCS(N)(=O)=O)c2)cnn1-c1ccc(F)cc1

>  <pIC50>
6.29

$$$$
>  <Smiles record>
Nc1c(C(=O)c2cccc(OCCN3CCOCC3)c2)cnn1-c1ccc(F)cc1

>  <pIC50>
6.11

$$$$
>  <Smiles record>
Nc1c(C(=O)c2cccc(/C=C/CN3CCOCC3)c2)cnn1-c1ccc(F)cc1

>  <pIC50>
5.90

$$$$
